meta.source: patent US12285407B2

system: Streptococcus pyogenes ATCC 19615; assay: Broth microdilution MIC of SP-BIMs; format: cell-based; details: ATCC19615, SP-BIM alone, read-out: MIC Streptococcus pyogenes ATCC 19615
Reported Metric: MIC

Oc1cc(Br)ccc1[C+](c1c[nH]c2ccccc12)c1c[nH]c2ccccc12 [SP-BIM 17] = > 250 µg/mL
c1ccc2c(C(c3ncc[nH]3)c3c[nH]c4ccccc34)c[nH]c2c1 [SP-BIM 4, [bis(indol-3-yl)imidazol-2-yl]methane] = 104 µg/mL

Kindly consider the entry below.
Query :: Consider the molecule CN(C)c1ccc(C(c2c[nH]c3ccccc23)c2c[nH]c3ccccc23)cc1 [SP-BIM 2] and give its measured MIC.
Result :: > 250 µg/mL

* * *

Catalogue of MIC readings, one per entry.
system: Streptococcus pyogenes ATCC 19615; test: Broth microdilution MIC of SP-BIMs; assay type: cell-based; conditions: ATCC19615, SP-BIM alone, read-out: MIC Streptococcus pyogenes ATCC 19615

# example entries with known answers
COc1ccccc1C(c1c[nH]c2ccccc12)c1c[nH]c2ccccc12 [SP-BIM 12, bis(indol-3-yl)-2-methoxyphenylmethane] = > 250 µg/mL
COc1ccc2c(C(c3cccc(O)c3)c3c[nH]c4cc(OC)ccc34)c[nH]c2c1 [SP-BIM 19] = > 250 µg/mL

Query :: Consider the molecule O=[N+]([O-])c1ccc(C(c2c[nH]c3ccccc23)c2c[nH]c3ccccc23)cc1 [SP-BIM 8] and give its measured MIC.
Result :: > 250 µg/mL

* * *

tested on: Streptococcus pyogenes ATCC 19615; assay: Broth microdilution MIC of SP-BIMs; assay type: cell-based; conditions: ATCC19615, SP-BIM alone, read-out: MIC Streptococcus pyogenes ATCC 19615
Reported Metric: MIC

Query :: Consider the molecule c1ccc(C(c2c[nH]c3ccccc23)c2c[nH]c3ccccc23)cc1 and give its measured MIC.
Result :: 83 µg/mL

Query :: Consider the molecule CC(C)(C)c1cc(C(c2c[nH]c3ccccc23)c2c[nH]c3ccccc23)c(O)c(C(C)(C)C)c1 and give its measured MIC.
Result :: > 250 µg/mL

Query :: Consider the molecule O=[N+]([O-])c1cccc(C(c2c[nH]c3ccccc23)c2c[nH]c3ccccc23)c1 [SP-BIM 5, [bis(indol-3-yl)-3-nitrophenyl]methane] and give its measured MIC.
Result :: > 250 µg/mL

Query :: Consider the molecule Nc1ccc(C(c2c[nH]c3ccccc23)c2c[nH]c3ccccc23)cc1 and give its measured MIC.
Result :: > 250 µg/mL
